[
  {
    "compound": "CN1c2ccccc2C(=O)N2CCc3c(n(CCCBr)c4ccccc34)C21 (stereo not shown)",
    "melting point": "130 to 132 °C"
  },
  {
    "compound": "CN1c2ccccc2C(=O)N2CCc3c(n(CCCC(=O)O)c4ccccc34)C21 (stereo not shown) [compound 5, 4-(Evodiamin-N13-yl)butyric acid]",
    "melting point": "234 °C (dec.)"
  },
  {
    "compound": "CN1c2ccccc2C(=O)N2CCc3c(n(CC(=O)c4ccccc4)c4ccccc34)C21 (stereo not shown)",
    "melting point": "245 °C (dec.)"
  },
  {
    "compound": "CCCCCCCCn1c2c(c3ccccc31)CCN1C(=O)c3ccccc3N(C)C21 (stereo not shown)",
    "melting point": "65 to 67 °C"
  },
  {
    "compound": "CCCCn1c2c(c3ccccc31)CCN1C(=O)c3ccccc3N(C)C21 (stereo not shown)",
    "melting point": "141 to 143 °C"
  },
  {
    "compound": "CCCCCn1c2c(c3ccccc31)CCN1C(=O)c3ccccc3N(C)C21 (stereo not shown)",
    "melting point": "143 to 145 °C"
  },
  {
    "compound": "CCCCOCCn1c2c(c3ccccc31)CCN1C(=O)c3ccccc3N(C)C21 (stereo not shown)",
    "melting point": "68 to 70 °C"
  }
]
